Data provenance: patent US10550097B2

# System: 11β-HSD1 (Homo sapiens, UniProt P28845)
# Sequence (P28845 whole entry): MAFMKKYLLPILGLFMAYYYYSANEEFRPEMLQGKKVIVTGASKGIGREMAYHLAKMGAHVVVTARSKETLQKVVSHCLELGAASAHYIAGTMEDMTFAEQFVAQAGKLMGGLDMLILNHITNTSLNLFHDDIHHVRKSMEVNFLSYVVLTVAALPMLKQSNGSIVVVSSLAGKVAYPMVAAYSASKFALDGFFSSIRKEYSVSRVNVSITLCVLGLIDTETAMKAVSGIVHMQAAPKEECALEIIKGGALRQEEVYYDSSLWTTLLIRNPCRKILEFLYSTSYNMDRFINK
# Experiment summary: Human keratinocytes assay: 11β-HSD1 activity (cortisone to cortisol)
# Type: cell-based
# Experimental parameters: 48 h
Some molecules, each annotated with its measured remaining activity at 0.001 µM.
Answer as a quantity: numeral, then unit.

These solved cases illustrate the format of a correct answer.
[
  {
    "Molecule": "Cc1ccc(-c2cccc(C(=O)N3CCCCCC3)c2)cc1F [IV-a]",
    "System": "11β-HSD1 (Homo sapiens, UniProt P28845)",
    "remaining activity at 0.001 µM": "74%"
  },
  {
    "Molecule": "CC1CCN(C(=O)c2cccc(-c3ccccc3Cl)c2)CC1 [II-e]",
    "System": "11β-HSD1 (Homo sapiens, UniProt P28845)",
    "remaining activity at 0.001 µM": "85%"
  },
  {
    "Molecule": "Cc1ccc(-c2cccc(C(=O)N3CCOC(C)(C)C3)c2)cc1F [III-a]",
    "System": "11β-HSD1 (Homo sapiens, UniProt P28845)",
    "remaining activity at 0.001 µM": "55%"
  },
  {
    "Molecule": "Cc1ccc(-c2cccc(C(=O)N3CCCCCC3)c2)cc1 [IV-c]",
    "System": "11β-HSD1 (Homo sapiens, UniProt P28845)",
    "remaining activity at 0.001 µM": "70%"
  },
  {
    "Molecule": "O=C(c1cccc(-c2ccccc2)c1)N1CCCCCC1 [IV-f]",
    "System": "11β-HSD1 (Homo sapiens, UniProt P28845)",
    "remaining activity at 0.001 µM": "83%"
  }
]

Let us move to another entry and its remaining activity at 0.001 µM.
Exam item: So what's the measured remaining activity at 0.001 µM for this one? Cc1ccc(-c2cccc(C(=O)N3CCCC(C)(C)C3)c2)cc1F [II-h]
Marked response: 10%

###

# System: UniProt P28845
# Experiment summary: Human keratinocytes assay: 11β-HSD1 activity (cortisone to cortisol)
# Type: cell-based
# Experimental parameters: 48 h
Listing: remaining activity at 0.00316 µM of selected compounds
Please report the result as a number followed by the unit.

[
  {
    "Entry smiles": "Cc1ccc(-c2cccc(C(=O)N3CCCCCC3)c2)cc1F",
    "System": "UniProt P28845",
    "remaining activity at 0.00316 µM": "45%"
  },
  {
    "Entry smiles": "CC1CCN(C(=O)c2cccc(-c3ccccc3Cl)c2)CC1",
    "System": "UniProt P28845",
    "remaining activity at 0.00316 µM": "70%"
  },
  {
    "Entry smiles": "O=C(c1cccc(-c2ccccc2)c1)N1CCCCCC1",
    "System": "UniProt P28845",
    "remaining activity at 0.00316 µM": "73%"
  },
  {
    "Entry smiles": "Cc1ccc(-c2cccc(C(=O)N3CCCCCC3)c2)cc1",
    "System": "UniProt P28845",
    "remaining activity at 0.00316 µM": "42%"
  }
]

Please find the next compound below.
Exam item: Sample Cc1ccc(-c2cccc(C(=O)N3CCOC(C)(C)C3)c2)cc1F — what was its remaining activity at 0.00316 µM?
Marked response: 37%
